TARGET_OR_SYSTEM: Replicase polyprotein 1a (Severe acute respiratory syndrome-related coronavirus, UniProt P0C6U8)
Reported log10 IC50 values are given for each entry in this list.
READOUT_TYPE: log10 IC50 (log10 of the value in µM)

{"MOLECULE": "Cc1cccc2c3c(ccc12)C1=C(C(=O)C3=O)[C@@H](C)CO1 [DIHYDROTANSHINONE I]", "log10 IC50": 0.08}
{"MOLECULE": "Cc1coc2c1C(=O)C(=O)c1c-2ccc2c(C)cccc12", "log10 IC50": -0.15}
{"MOLECULE": "Cc1coc2c1C(=O)C(=O)c1c-2ccc2c1CCCC2(C)CO (stereo not given)", "log10 IC50": 1.72}
{"MOLECULE": "CC(C)C1=Cc2ccc3c(c2C(=O)C1=O)CCCC3(C)C", "log10 IC50": 1.78}
{"MOLECULE": "C[C@H]1COC2=C1C(=O)C(=O)c1c2ccc2c1CCCC2(C)C", "log10 IC50": 1.94}
